These measurements were taken from the NIST ThermoML archive (doi:10.1016/j.jct.2015.07.042).

assay: activity coefficient (dimensionless); of the first substance listed, at infinite dilution; xn = mol fraction of the nth substance listed; conditions: 398.15 K; 101 kPa; Liquid; Chromatography; x1 = 0
hey, just use met if measured activity coefficient is less than 0.5, otherwise not met

Request: Answer whether the compound CC(C)O [propan-2-ol] + CCCCn1cc[n+](C)c1.[Cl-] has activity coefficient strictly less than 0.5
Result: not met

Request: Answer whether the compound CCO [ethanol] + CCCCn1cc[n+](C)c1.[Cl-] has activity coefficient strictly less than 0.5
Result: met

Request: Answer whether the compound O [water] + CCCCn1cc[n+](C)c1.CS(=O)(=O)[O-] has activity coefficient strictly less than 0.5
Result: met

Request: Answer whether the compound O [water] + CCCCn1cc[n+](C)c1.[Cl-] has activity coefficient strictly less than 0.5
Result: met

Request: Answer whether the compound CO [methanol] + CCCCn1cc[n+](C)c1.CS(=O)(=O)[O-] has activity coefficient strictly less than 0.5
Result: met

Request: Answer whether the compound CCC(C)O (stereo not given) [butan-2-ol] + CCCCn1cc[n+](C)c1.COP(=O)([O-])OC has activity coefficient strictly less than 0.5
Result: met

Request: Answer whether the compound CCCCO [butan-1-ol] + CCCCn1cc[n+](C)c1.[Cl-] has activity coefficient strictly less than 0.5
Result: not met

Request: Answer whether the compound CCCO [propan-1-ol] + CCCCn1cc[n+](C)c1.[Cl-] has activity coefficient strictly less than 0.5
Result: met

Request: Answer whether the compound CCCO [propan-1-ol] + CCCCn1cc[n+](C)c1.CS(=O)(=O)[O-] has activity coefficient strictly less than 0.5
Result: not met

Request: Answer whether the compound CCO [ethanol] + CCCCn1cc[n+](C)c1.CS(=O)(=O)[O-] has activity coefficient strictly less than 0.5
Result: not met

* * *

experiment: activity coefficient (dimensionless); of the first substance listed, at infinite dilution; xn = mol fraction of the nth substance listed; conditions: 358.15 K; 101 kPa; Liquid; Chromatography; x1 = 0
Reported Property: activity coefficient
Just the number, please, no unit after it.

Reference set, count: 8
Compound: C=CCCCC [hex-1-ene] + CCCCn1cc[n+](C)c1.COP(=O)([O-])OC
Recorded Result: 13.9
--
Compound: C#CCCC [1-pentyne] + CCCCn1cc[n+](C)c1.[Cl-]
Recorded Result: 4.89
--
Compound: C=CCCCCCCCC [1-decene] + CCCCn1cc[n+](C)c1.COP(=O)([O-])OC
Recorded Result: 53.5
--
Compound: C=C(C)c1ccccc1 [(1-methylethenyl)benzene] + CCCCn1cc[n+](C)c1.COP(=O)([O-])OC
Recorded Result: 4.57
--
Compound: C1CCCCC1 [cyclohexane] + CCCCn1cc[n+](C)c1.[Cl-]
Recorded Result: 84.2
--
Compound: C=Cc1ccccc1 [styrene] + CCCCn1cc[n+](C)c1.CS(=O)(=O)[O-]
Recorded Result: 3.79
--
Compound: CC1CCCCC1 [methylcyclohexane] + CCCCn1cc[n+](C)c1.COP(=O)([O-])OC
Recorded Result: 17.4
--
Compound: C#CCCCC [1-hexyne] + CCCCn1cc[n+](C)c1.[Cl-]
Recorded Result: 7.33

Request: Report activity coefficient, nothing else, for this compound: CC#N [acetonitrile] + CCCCn1cc[n+](C)c1.CS(=O)(=O)[O-]
Result: 0.99

Request: Report activity coefficient, nothing else, for this compound: CCOC(C)(C)C [2-ethoxy-2-methylpropane] + CCCCn1cc[n+](C)c1.[Cl-]
Result: 64.8

Request: Report activity coefficient, nothing else, for this compound: CCCC=O [butanal] + CCCCn1cc[n+](C)c1.CS(=O)(=O)[O-]
Result: 3.33

Request: Report activity coefficient, nothing else, for this compound: C=CCCCCC [1-heptene] + CCCCn1cc[n+](C)c1.[Cl-]
Result: 88.9

Request: Report activity coefficient, nothing else, for this compound: Cc1ccccc1 [toluene] + CCCCn1cc[n+](C)c1.CS(=O)(=O)[O-]
Result: 5.32

Request: Report activity coefficient, nothing else, for this compound: C1CCOC1 [tetrahydrofuran] + CCCCn1cc[n+](C)c1.[Cl-]
Result: 5.66

Request: Report activity coefficient, nothing else, for this compound: Cc1cccc(C)c1 [1,3-dimethylbenzene] + CCCCn1cc[n+](C)c1.[Cl-]
Result: 14.3

Request: Report activity coefficient, nothing else, for this compound: COC(C)(C)C [2-methoxy-2-methylpropane] + CCCCn1cc[n+](C)c1.[Cl-]
Result: 24.6

Request: Report activity coefficient, nothing else, for this compound: C1CCOC1 [tetrahydrofuran] + CCCCn1cc[n+](C)c1.CS(=O)(=O)[O-]
Result: 3.41

Request: Report activity coefficient, nothing else, for this compound: c1ccncc1 [pyridine] + CCCCn1cc[n+](C)c1.[Cl-]
Result: 1.47

Request: Report activity coefficient, nothing else, for this compound: C#CCCC [1-pentyne] + CCCCn1cc[n+](C)c1.COP(=O)([O-])OC
Result: 2.18

Request: Report activity coefficient, nothing else, for this compound: CCC(C)(C)OC [2-methoxy-2-methylbutane] + CCCCn1cc[n+](C)c1.COP(=O)([O-])OC
Result: 9.5

Request: Report activity coefficient, nothing else, for this compound: CCCC(=O)OC [methyl butanoate] + CCCCn1cc[n+](C)c1.[Cl-]
Result: 12.3

Request: Report activity coefficient, nothing else, for this compound: C1CCCCCC1 [cycloheptane] + CCCCn1cc[n+](C)c1.[Cl-]
Result: 62.7

Request: Report activity coefficient, nothing else, for this compound: C1CCCCCCC1 [cyclooctane] + CCCCn1cc[n+](C)c1.COP(=O)([O-])OC
Result: 18.8

Request: Report activity coefficient, nothing else, for this compound: CCC(=O)OC [methyl propanoate] + CCCCn1cc[n+](C)c1.[Cl-]
Result: 8

Request: Report activity coefficient, nothing else, for this compound: CCCC(=O)OC [methyl butanoate] + CCCCn1cc[n+](C)c1.CS(=O)(=O)[O-]
Result: 6.79

Request: Report activity coefficient, nothing else, for this compound: C1CCCC1 [cyclopentane] + CCCCn1cc[n+](C)c1.COP(=O)([O-])OC
Result: 8.76

Request: Report activity coefficient, nothing else, for this compound: C=CCCCCCCCC [1-decene] + CCCCn1cc[n+](C)c1.CS(=O)(=O)[O-]
Result: 193

Request: Report activity coefficient, nothing else, for this compound: CC1CCCCC1 [methylcyclohexane] + CCCCn1cc[n+](C)c1.[Cl-]
Result: 84.2
